System: Key Broadleaf Weed and Crop Species
Experiment: Post-emergent Test II herbicidal activity (Table 5)
Assay type: in vivo
Details: post-emergence, 336 h; BRSNN: oilseed-rape, canola (Brassica napus); 140 g ai/ha; post-emergent; 14 days after application; read-out: Visual Growth Reduction (%) 14 Days After Application BRSNN
Parameter: pest or weed control at 140 g/ha. Scope: all listed entries.

>  <Smiles Representation>
C=Cc1c(N)nc(-c2ccc(C#N)cc2F)nc1C(=O)O

>  <pest or weed control at 140 g/ha>
0 to 29%

$$$$
>  <Smiles Representation>
COC(=O)c1nc(-c2cc(F)c(C(F)F)cc2F)cc(N)c1Cl

>  <pest or weed control at 140 g/ha>
85 to 94%

$$$$
>  <Smiles Representation>
Nc1cc(-c2ccc(Br)c(F)c2)nc(C(=O)O)c1Cl

>  <pest or weed control at 140 g/ha>
95 to 100%

$$$$
>  <Smiles Representation>
Nc1c(F)c(-c2cc(F)c(Br)cc2F)nc(C(=O)O)c1Cl

>  <pest or weed control at 140 g/ha>
95 to 100%

$$$$
>  <Smiles Representation>
COC(=O)c1nc(-c2ccc(OC(F)F)cc2)c(Cl)c(N)c1Cl

>  <pest or weed control at 140 g/ha>
0 to 29%

$$$$
>  <Smiles Representation>
COC(=O)c1nc(-c2ccc(Br)cc2F)cc(N)c1Cl

>  <pest or weed control at 140 g/ha>
60 to 74%

$$$$
>  <Smiles Representation>
Nc1c(F)c(-c2cc(F)c(I)cc2F)nc(C(=O)O)c1Cl

>  <pest or weed control at 140 g/ha>
95 to 100%

$$$$
>  <Smiles Representation>
COC(=O)c1nc(-c2cc(F)c(C#N)cc2F)nc(N)c1OC

>  <pest or weed control at 140 g/ha>
0 to 29%

$$$$
>  <Smiles Representation>
COC(=O)c1nc(-c2cc(F)c(Br)cc2F)nc(N)c1OC

>  <pest or weed control at 140 g/ha>
95 to 100%

$$$$
>  <Smiles Representation>
COC(=O)c1nc(-c2cc(F)c(Br)cc2F)cc(N)c1Cl

>  <pest or weed control at 140 g/ha>
95 to 100%

$$$$

----------
System: KCHSC: kochia (Kochia scoparia)
Assay: Post-emergent Test III, herbicidal activity in wheat and barley
Format: in vivo
Conditions: Bassia scoparia, post-emergence, 504 h; 140 g ai/ha; read-out: Visual Growth Reduction (%) 21 Days After Application KCHSC
Parameter Measured: pest or weed control at 140 g/ha

>  <Smiles Representation>
N#Cc1ccc(-c2nc(C(=O)O)c(Cl)c(N)c2F)cc1

>  <Experimental Result>
85 to 94%

$$$$
>  <Smiles Representation>
COC(=O)c1nc(-c2ccc(Cl)c(F)c2)c(F)c(N)c1Cl

>  <Experimental Result>
95 to 100%

$$$$
>  <Smiles Representation>
COC(=O)c1nc(-c2ccc(OC(F)F)cc2)c(F)c(N)c1Cl

>  <Experimental Result>
0 to 29%

$$$$
>  <Smiles Representation>
Nc1cc(-c2ccc(Br)c(F)c2F)nc(C(=O)O)c1Cl

>  <Experimental Result>
85 to 94%

$$$$
>  <Smiles Representation>
C=Cc1c(C(=O)O)nc(-c2ccc(Cl)c(F)c2)c(F)c1N

>  <Experimental Result>
95 to 100%

$$$$
>  <Smiles Representation>
COC(=O)c1nc(-c2ccc(F)cc2)c(F)c(N)c1Cl

>  <Experimental Result>
95 to 100%

$$$$
>  <Smiles Representation>
Nc1c(F)c(-c2ccc(I)cc2)nc(C(=O)O)c1Cl

>  <Experimental Result>
95 to 100%

$$$$
>  <Smiles Representation>
COC(=O)c1nc(-c2ccc(Br)cc2)c(F)c(N)c1Cl

>  <Experimental Result>
95 to 100%

$$$$
>  <Smiles Representation>
Nc1c(F)c(-c2ccc(OC(F)F)cc2)nc(C(=O)O)c1Cl

>  <Experimental Result>
45 to 59%

$$$$
>  <Smiles Representation>
Nc1c(F)c(-c2ccc(Cl)c(F)c2)nc(C(=O)O)c1Cl

>  <Experimental Result>
95 to 100%

$$$$
>  <Smiles Representation>
COC(=O)c1nc(-c2ccc(C#N)cc2)c(F)c(N)c1Cl

>  <Experimental Result>
60 to 74%

$$$$
